test system: 227483-062-R1-J1-PDC complex spheroids with HUVEC/MSC, viability; experiment: Anticancer human tumor 227483-062-R1-J1-PDC patient-derived pancreatic carcinoma cell line growth inhibition [CLK]; conditions: second compound 0.316 µM; first compound 0.0316 µM; active = viability on the fitted dose curve at most 10% of control; inactive = the rest;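 note: spheroids exposed to compounds for seven days before readout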
Permitted responses: Yes for active, No for inactive

// query // return assay outcome for CCc1c2c(nc3ccc(O)cc13)-c1cc3c(c(=O)n1C2)COC(=O)[C@]3(O)CC + CNC(=O)c1ccc(Nc2nc(OC3CCCC3)c3c(-c4ccc5nc(C)oc5c4)c[nH]c3n2)c(OC)c1
// result No

// query Now try CCCS(=O)(=O)Nc1ccc(F)c(C(=O)c2c[nH]c3ncc(-c4ccc(Cl)cc4)cc23)c1F + CNC(=O)c1ccc(Nc2nc(OC3CCCC3)c3c(-c4ccc5nc(C)oc5c4)c[nH]c3n2)c(OC)c1 .
// result No

// query Record: CC(CO)NC(=O)c1cc(-c2ccc(Cl)cc2)nn(-c2cnn(C)c2)c1=O (stereo unspecified) + CNC(=O)c1ccc(Nc2nc(OC3CCCC3)c3c(-c4ccc5nc(C)oc5c4)c[nH]c3n2)c(OC)c1
// result No

// query For CC1COCCN1c1cc(C2(S(C)(=N)=O)CC2)nc(-c2ccnc3[nH]ccc23)n1 (stereo unspecified) + CNC(=O)c1ccc(Nc2nc(OC3CCCC3)c3c(-c4ccc5nc(C)oc5c4)c[nH]c3n2)c(OC)c1 then?
// result No

// query Entry CC(Nc1ccc2c(c1)OCCn1cc(N3C(=O)OCC3C(F)F)nc1-2)C(N)=O (stereo unspecified) + CN1CCN(c2cc(C(=O)Nc3cc4cc(-c5cnn(C)c5)ccc4cn3)ccn2)CC1 please
// result Yes

// query Similarly, C=CC(=O)N1CCN(c2nc(=O)n(-c3c(C)ccnc3C(C)C)c3nc(-c4c(O)cccc4F)c(F)cc23)C(C)C1 (stereo unspecified) + CNC(=O)c1ccc(Nc2nc(OC3CCCC3)c3c(-c4ccc5nc(C)oc5c4)c[nH]c3n2)c(OC)c1 ?
// result No

// query Next molecule up: CC1(C)CCC(CN2CCN(c3ccc(C(=O)NS(=O)(=O)c4ccc(NCC5CCOCC5)c([N+](=O)[O-])c4)c(Oc4cnc5[nH]ccc5c4)c3)CC2)=C(c2ccc(Cl)cc2)C1 + CNC(=O)c1ccc(Nc2nc(OC3CCCC3)c3c(-c4ccc5nc(C)oc5c4)c[nH]c3n2)c(OC)c1
// result No

// query Item: Nc1ccn(C2OC(CO)C(O)C2(F)F)c(=O)n1 (stereo unspecified) + CN1CCN(c2cc(C(=O)Nc3cc4cc(-c5cnn(C)c5)ccc4cn3)ccn2)CC1
// result Yes

// query Same thing, different molecule: O=c1[nH]cc(F)c(=O)[nH]1 + CNC(=O)c1ccc(Nc2nc(OC3CCCC3)c3c(-c4ccc5nc(C)oc5c4)c[nH]c3n2)c(OC)c1
// result No

// query Also, CCN1CCN(Cc2ccc(Nc3ncc(F)c(-c4cc(F)c5nc(C)n(C(C)C)c5c4)n3)nc2)CC1 + CN1CCN(c2cc(C(=O)Nc3cc4cc(-c5cnn(C)c5)ccc4cn3)ccn2)CC1 please.
// result Yes

// query Another molecule: Nc1ccccc1NC(=O)c1ccc(CNC(=O)OCc2cccnc2)cc1 + CN1CCN(c2cc(C(=O)Nc3cc4cc(-c5cnn(C)c5)ccc4cn3)ccn2)CC1
// result Yes
